- protocolDescription: MTT assay, normal lung cells
- Assay type: cell-based, human
- conditions: human, MRC5 normal lung cells
Each item that follows carries a reported IC50 at 48 h.

COc1cc(Cc2nnc3sc(/C=C/c4ccc(F)cc4)nn23)c(S(=O)(=O)N(C)C)cc1OC : > 100 µM
COc1cc([C@@H]2c3cc4c(cc3[C@@H](O[C@@H]3O[C@@H]5CO[C@@H](C)O[C@H]5[C@H](O)[C@H]3O)[C@H]3COC(=O)[C@H]23)OCO4)cc(OC)c1O [Etoposide, reference compound] : > 100 µM
COc1cc(Cc2nnc3sc(/C=C/c4ccc(Cl)cc4)nn23)c(S(=O)(=O)N(C)C)cc1OC : > 100 µM

Now look at this one.
Find the measured IC50 at 48 h of COc1cc(Cc2nnc3sc(-c4cc([N+](=O)[O-])ccc4[N+](=O)[O-])nn23)c(S(=O)(=O)N(C)C)cc1OC and report it.
40.5 µM

---

- System: HT-29 cancer cells
- protocolDescription: MTT assay, in vitro antiproliferative activity, HT-29
- Type: cell-based, human
- conditions: Homo sapiens, HT-29, 48 h, read-out: IC50 (half maximal cytotoxic concentration)
IC50 for assorted compounds

Answered examples (3):
COc1cc([C@@H]2c3cc4c(cc3[C@@H](O[C@@H]3O[C@@H]5CO[C@@H](C)O[C@H]5[C@H](O)[C@H]3O)[C@H]3COC(=O)[C@H]23)OCO4)cc(OC)c1O [Etoposide, reference compound] : > 100 µM
COc1cc(Cc2nnc3sc(/C=C/c4ccc(Cl)cc4)nn23)c(S(=O)(=O)N(C)C)cc1OC : > 100 µM
COc1cc(Cc2nnc3sc(-c4cc([N+](=O)[O-])ccc4[N+](=O)[O-])nn23)c(S(=O)(=O)N(C)C)cc1OC : 19.5 µM

Please look at the following compound next.
Let me know recorded IC50 for COc1cc(Cc2nnc3sc(/C=C/c4ccc(F)cc4)nn23)c(S(=O)(=O)N(C)C)cc1OC , thanks.
> 100 µM
